Data origin: the supplement of paper PMC9170038

Recorded apparent KD of MS2 coat protein, one value per entry.
System: MS2 coat protein
protocol: apparent KD of MS2 coat protein; designed switch direction (-1 OFF switch, 1 ON switch): -1; higher = weaker reporter binding
condition_context: Eterna round: R95; input ligand: none
measurement_type: apparent KD of MS2 coat protein (nM)

>>> number("AAACGGCGGAUCGUGGCUUUUUGCUCGUCUUGUGCUUCGACAUGAGGAUCACCCAUGUGGUGGUGAUCCGUUGUAAA [Grok-var2-16 mod JAL] (puzzle: Sensor v3, turn-off variant 2)")
83.5
>>> number("GUCACUAGAGGAUAUACAAUGGUAUAUGAUCCUAGUGACAAACAUGAGGAUCACCCAUGUAGAAGGCUAGUAAA [Exclusion 2 - 2] (puzzle: Exclusion 2)")
28
>>> number("AAAAAACAAGGAUAUACAAAAAAAAAAAGUGAAAAAAAACCACAUGAGGAUCACCCAUGUAGAAGGUGUAAAAA [JR_Exclusion2_Sub002] (puzzle: Exclusion 2)")
51.1
>>> number("CUUCACCCACCAGAGCUCACCCACAUACCAGCUCUGGUGACAUGAGGAUCACCCAUGUUUUUUGCCCGUCUUAUCUU [Intibima] (puzzle: Sensor v3, turn-off variant 2)")
46.8

---

System: MS2 coat protein
protocol: apparent KD of MS2 coat protein; higher = weaker reporter binding
condition_context: Eterna round: R107; input ligand: theophylline 2 mM
measurement_type: apparent KD of MS2 coat protein (nM)

>>> number("ACAUGAGGAUCACCCAUGUCAGGGCACGAUACCAGCUGAUCCGAUGGCCCUUGGCAGCGUUACGUGUGGUCAUGAGGAUCACCCG [pjbmullin]")
76.8
>>> number("UUCAGACAUGAGGAUCACCCAUGUACUGAAGGAGCGGAUAAAUAUCCAGGUAGGUCGCAGUAUUGAGGGUCUACUUCCAGUCUUU [Reoruser]")
9.47
>>> number("UCAAUACAGUCGGCCGCCACUGUAACCAAACCUACAUACCAACAUGAGGAUCACCCAUGUUUAUACAGGACCGGGACCUCUAUGA [theeternabot_sameState_MS2_Trp_B_10]")
46.4
>>> number("GGUACAUGAGGAUCACCCAUGUGUCAUGAUACCAGACAUGAAAAUGUCCCUUGGCAGCAUGCCAGACGGCCGCGUUUAGCGGCCG [Oresin]")
19.6
>>> number("AAUAAUAAGGCGGCCGCCACUAAACAUGAGGAUCACCCAUGUCUCGAGCGCUUGCAUUUGGGAAGUAGGACCGGGCCAAUAAUAA [Exclusion - Tryptophan B (Freestyle 4)]")
22.6
>>> number("AUUAUAGUUUAUAACGAAGUUGAUACAGAAGGAGCGUGAAUAAUCACAGGUAGGUCGCUGAUAAUACAUGAGGAUCACCCAUGUU [JR_Nu_SSArginiA_Sub018]")
18.9
>>> number("AAUGUAUGGCACAUGAGGAUCACCCAUGUGCGAGGACCGGUACGGCCGCCACUCGGUCCUGGAUUCUUAUUACUAUACAUUAAUG [XTryp A #16]")
15.4
>>> number("UGUAUGGACUGAAGGAGCGGGUUGAUAACCUGAGGAUCAUCCAGGUAAAAGGCGAAAGCCACCCAGGUAGGUCGCAGUCCAUACU")
433
>>> number("GGACUAACCAGAAGGAGCGACACGCAGAAACUGCAAAUUCCUCUGCACGAGGAUCACCCGUGUCAGGUAGGUCGCUGGUUAGUCG")
36.6
>>> number("CGGUAACCACAUGAGGAUCACCCAUGUGAAGGAGCGGCGAAUAAGCCAGGUAGGUCGCGCAUGAAUAAAUCAUGUAGGUGCCGAA [XArg-A 15 NuPack]")
156
>>> number("AUAAAUAAUAAAUAAGAUAAAAUGGGUGAACGAGGACCGGUACGGCCGCCACUCGGACAUGAGGAUCACCCAUGUCCAUGUGAAA [#22 Exclusion Tryptophan A]")
20.2
>>> number("UGGUACAUGAGGAUCACCCAUGUUCCAGAUACCAGUGUCCCGCUGCACCCUUGGCAGCUGGUGGUACAUGAGGAUCACCCAUGUG [Exclusion Theophylline A GF11]")
56.4
